plasma concentration by entry:
assay_procedure: Monitoring of the plasma concentration of the main oligosaccharides of a VLMWH in human volunteers (plasma filtration + anion-exchange HPLC)
Type: in vivo
test_context: 12 h after administration of VLMWH (2500 Da) 1.4 mg/kg
State the answer as a number, implicitly in nM.

compound	plasma concentration / nM
O=C(O)C1=CC(O)C(OS(=O)(=O)O)C(OC2C(COS(=O)(=O)O)OC(OC3C(C(=O)O)OC(OC4C(COS(=O)(=O)O)OC(O)C(NS(=O)(=O)O)C4O)C(OS(=O)(=O)O)C3O)C(NS(=O)(=O)O)C2O)O1 (centres unmarked)	10
CC(=O)NC1C(OC2C(C(=O)O)OC(OC3C(COS(=O)(=O)O)OC(OC4C(C(=O)O)OC(OC5C(COS(=O)(=O)O)OC(OC6C(C(=O)O)OC(OC7C(COS(=O)(=O)O)OC(O)C(NS(=O)(=O)O)C7O)C(OS(=O)(=O)O)C6O)C(NS(=O)(=O)O)C5O)C(OS(=O)(=O)O)C4O)C(NS(=O)(=O)O)C3OS(=O)(=O)O)C(O)C2O)OC(COS(=O)(=O)O)C(OC2OC(C(=O)O)=CC(O)C2O)C1O (centres unmarked)	30
O=C(O)C1=CC(O)C(OS(=O)(=O)O)C(OC2C(COS(=O)(=O)O)OC(OC3C(C(=O)O)OC(OC4C(COS(=O)(=O)O)OC(OC5C(C(=O)O)OC(OC6C(COS(=O)(=O)O)OC(O)C(NS(=O)(=O)O)C6O)C(OS(=O)(=O)O)C5O)C(NS(=O)(=O)O)C4O)C(OS(=O)(=O)O)C3O)C(NS(=O)(=O)O)C2O)O1 (centres unmarked)	0
CC(=O)NC1C(OC2C(C(=O)O)OC(OC3C(COS(=O)(=O)O)OC(OC4C(C(=O)O)OC(OC5C(COS(=O)(=O)O)OC(O)C(NS(=O)(=O)O)C5O)C(OS(=O)(=O)O)C4O)C(NS(=O)(=O)O)C3OS(=O)(=O)O)C(O)C2O)OC(COS(=O)(=O)O)C(OC2OC(C(=O)O)=CC(O)C2O)C1O (centres unmarked)	80

Continue with the next compound.
plasma concentration reported for this compound O=C(O)C1=CC(O)C(OS(=O)(=O)O)C(OC2C(COS(=O)(=O)O)OC(O)C(NS(=O)(=O)O)C2O)O1 (centres unmarked) : 0

----------
assay_procedure: Monitoring of the plasma concentration of the main oligosaccharides of a VLMWH in human volunteers (plasma filtration + anion-exchange HPLC)
Type: in vivo
test_context: 4 h after administration of VLMWH (2500 Da) 1.4 mg/kg
Method: A plasma sample with a volume of between 100 and 1000 μl is withdrawn and, if appropriate, the internal standard is added to the latter. After homogenization, the resulting solution is introduced into a 30 kD Ultrafree 05 ultrafiltration cartridge (Millipore) rinsed beforehand with 250 μl of water by centrifuging at 10 000 rev/min for 5 minutes. […] The filtered plasma is analyzed by anion-exchange HPLC. […]
readout_kind: plasma concentration

plasma concentration reported for this compound O=C(O)C1=CC(O)C(OS(=O)(=O)O)C(OC2C(COS(=O)(=O)O)OC(OC3C(C(=O)O)OC(OC4C(COS(=O)(=O)O)OC(O)C(NS(=O)(=O)O)C4O)C(OS(=O)(=O)O)C3O)C(NS(=O)(=O)O)C2O)O1 (stereo not shown) : 70 nM
